target: Serine/threonine-protein kinase pim-1 (Homo sapiens); assay: Inhibition of N-terminal GST-tagged recombinant human full length Pim-1 expressed in Escherichia coli after 1 hr by Alphascreen assay
Sequence (P11309 whole entry): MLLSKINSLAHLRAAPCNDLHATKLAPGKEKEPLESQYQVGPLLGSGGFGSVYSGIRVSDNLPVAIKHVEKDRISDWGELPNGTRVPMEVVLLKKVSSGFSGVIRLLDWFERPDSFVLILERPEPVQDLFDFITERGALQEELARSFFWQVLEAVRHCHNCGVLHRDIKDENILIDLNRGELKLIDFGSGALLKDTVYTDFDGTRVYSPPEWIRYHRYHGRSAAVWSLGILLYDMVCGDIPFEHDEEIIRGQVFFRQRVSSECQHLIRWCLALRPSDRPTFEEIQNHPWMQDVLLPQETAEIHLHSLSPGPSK
TEST_READOUT: IC50

COc1cccc(NC(=O)Nc2cncc3nc(-c4ccccc4)cnc23)c1 = > 31.6 µM
COc1cccc(Nc2cc3nc(-c4ccccc4)cnc3cn2)c1 = > 100 µM
c1ccc(-c2cnc3cncc(Nc4ccc(N5CCCCC5)cc4)c3n2)cc1 = 2.61 µM

IN: Quick one: IC50 for `C=CCNC(=O)Nc1cncc2nc(-c3ccccc3)cnc12` ?
OUT: > 100 µM

IN: Quick one: IC50 for `COc1cccc(NC(=O)Nc2nccc3nc(-c4ccccc4)cnc23)c1` ?
OUT: > 100 µM
